- MEASURED TARGET: Ba/F3 V617F cells (Homo sapiens, UniProt O60674, V617F, cells depend on it)
- Sequence (O60674 whole entry V617F): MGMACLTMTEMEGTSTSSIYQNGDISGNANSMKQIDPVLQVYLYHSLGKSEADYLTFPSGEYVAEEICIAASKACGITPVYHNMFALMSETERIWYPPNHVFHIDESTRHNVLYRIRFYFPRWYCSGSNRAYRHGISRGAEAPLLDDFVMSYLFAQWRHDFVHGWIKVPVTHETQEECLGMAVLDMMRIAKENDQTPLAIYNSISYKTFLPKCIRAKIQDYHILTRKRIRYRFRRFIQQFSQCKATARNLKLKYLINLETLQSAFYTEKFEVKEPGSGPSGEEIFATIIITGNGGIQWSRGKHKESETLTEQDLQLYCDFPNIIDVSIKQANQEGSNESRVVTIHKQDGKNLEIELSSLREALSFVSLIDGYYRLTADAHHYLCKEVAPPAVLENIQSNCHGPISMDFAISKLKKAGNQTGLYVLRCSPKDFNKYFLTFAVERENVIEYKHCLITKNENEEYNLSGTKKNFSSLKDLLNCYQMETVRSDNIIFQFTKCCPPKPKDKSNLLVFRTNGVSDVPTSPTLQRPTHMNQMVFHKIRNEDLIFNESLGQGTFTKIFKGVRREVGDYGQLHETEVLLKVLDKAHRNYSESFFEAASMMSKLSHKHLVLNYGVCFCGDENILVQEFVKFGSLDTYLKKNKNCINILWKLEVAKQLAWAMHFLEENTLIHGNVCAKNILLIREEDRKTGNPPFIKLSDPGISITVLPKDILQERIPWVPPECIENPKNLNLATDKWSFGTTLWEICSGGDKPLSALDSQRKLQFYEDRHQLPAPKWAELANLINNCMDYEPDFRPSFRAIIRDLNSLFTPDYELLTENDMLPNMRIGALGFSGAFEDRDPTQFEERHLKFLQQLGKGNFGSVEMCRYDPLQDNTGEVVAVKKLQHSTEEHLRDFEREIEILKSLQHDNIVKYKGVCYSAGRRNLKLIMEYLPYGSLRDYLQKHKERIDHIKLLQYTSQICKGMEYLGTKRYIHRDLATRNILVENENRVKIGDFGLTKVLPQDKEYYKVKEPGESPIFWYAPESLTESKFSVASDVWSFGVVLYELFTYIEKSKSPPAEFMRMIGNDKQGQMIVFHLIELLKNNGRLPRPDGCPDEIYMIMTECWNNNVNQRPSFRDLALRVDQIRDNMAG
- EXPERIMENT DESCRIPTION: Proliferation assay (Cell Titer-Glo, 72 h) utilizing Ba/F3 V617F cells
- Type: cell-based, mouse
- DETAILS: Ba/F3 V617F cells, proliferation, level of activity to inhibit JAK2, read-out: IC50 (the source's name)
RECORDED METRIC: GI50

Cc1cc(Nc2ncc(C(F)(F)F)c(-c3ccc(N(C)C)nc3)n2)ccc1N1C[C@@H]2C[C@H]1CN2C
1000 to 10000 nM
CCOC(C)c1ccc(-c2ccnc(Nc3ccc(N4C[C@@H]5C[C@H]4CN5C)c(F)c3)n2)cc1 (stereo partly drawn)
1000 to 10000 nM

Fill blank: measured GI50 of the compound Cc1cnc(Nc2ccc(N3C[C@@H]4C[C@H]3CN4C)c(F)c2)nc1-c1ccc(N2CCOCC2)nc1 is ____.
< 1000 nM

Param item: Cc1cc(Nc2nccc(-c3ccc(N4CCOCC4)nc3)n2)ccc1N1CCN2CCC1CC2
< 1000 nM

Param item: CN1C[C@H]2C[C@@H]1CN2c1ccc(Nc2nccc(-c3cnc4c(c3)OC(C)(C)C(=O)N4)n2)cc1F
< 1000 nM

Param item: CNC(=O)c1ccc(-c2ccnc(Nc3ccc(N4C[C@@H]5C[C@H]4CN5C)c(C)c3)n2)cn1
< 1000 nM

Param item: Cc1cc(Nc2nccc(-c3cc[nH]c3)n2)ccc1N1C[C@@H]2C[C@H]1CN2C
1000 to 10000 nM

Param item: Cc1cc(Nc2nccc(-c3ccc(C#N)nc3)n2)ccc1N1C2CCC1CC2
1000 to 10000 nM

Param item: Cc1cc(-c2ccnc(Nc3ccc(N4CC5(C)CN(C)CC(C)(C4)C5)c(F)c3)n2)cnc1N1CCOCC1
< 1000 nM

Param item: CC(=O)Nc1ccc(-c2ccnc(Nc3ccc(N4C[C@@H]5C[C@H]4CN5C)c(C)c3)n2)cn1
< 1000 nM

---

- MEASURED TARGET: Ba/F3 V617F cells (Homo sapiens, UniProt O60674, V617F, cells depend on it)
- EXPERIMENT DESCRIPTION: Proliferation assay (Cell Titer-Glo, 72 h) utilizing Ba/F3 V617F cells
- Type: cell-based, mouse
- DETAILS: Ba/F3 V617F cells, proliferation, level of activity to inhibit JAK2, read-out: IC50 (the source's name)
RECORDED METRIC: GI50

// worked examples, GI50 included
Cc1cc(Nc2nccc(-c3ccc(C(=O)NC4=NCCS4)cc3)n2)ccc1N1C[C@@H]2C[C@H]1CN2C
1000 to 10000 nM
Cc1cc(Nc2nccc(-c3ccc(CC(=O)NC4CC4)cc3)n2)ccc1N1C[C@@H]2C[C@H]1CN2C
1000 to 10000 nM
Cc1cc(Nc2nccc(-c3cnc4c(c3)OC(C)(C)C(=O)N4)n2)ccc1N1C[C@@H]2C[C@H]1CN2S(C)(=O)=O
< 1000 nM

Fill blank: measured GI50 of the molecule Cc1cc(Nc2nccc(-c3cnc4c(c3)OCCN4)n2)ccc1N1C[C@@H]2C[C@H]1CN2C is ____.
< 1000 nM

---

- MEASURED TARGET: Ba/F3 V617F cells (Homo sapiens, UniProt O60674, V617F, cells depend on it)
- EXPERIMENT DESCRIPTION: Proliferation assay (Cell Titer-Glo, 72 h) utilizing Ba/F3 V617F cells
- Type: cell-based, mouse
- DETAILS: Ba/F3 V617F cells, proliferation, level of activity to inhibit JAK2, read-out: IC50 (the source's name)
RECORDED METRIC: GI50

Cc1cc(Nc2nccc(-c3ccc(N4CCOCC4)nc3)n2)ccc1N1C[C@H]2C[C@@H]1CN2C [compound 72]
< 1000 nM

Fill blank: measured GI50 of the compound CC1(C)Oc2cc(-c3ccnc(Nc4ccc(N5C[C@@H]6C[C@H]5CN6)c(C(F)(F)F)c4)n3)cnc2NC1=O [compound 172] is ____.
< 1000 nM

Param item: CN1C[C@@H]2C[C@H]1CN2c1ccc(Nc2nccc(-c3cnc(N4CCOCC4)nc3)n2)cc1 [compound 40]
1000 to 10000 nM

Param item: Cc1cc(Nc2nccc(-c3cncc(S(C)(=O)=O)c3)n2)ccc1N1C[C@@H]2C[C@H]1CN2C [compound 95]
< 1000 nM

Param item: CCN1C[C@@H]2C[C@H]1CN2c1ccc(Nc2nccc(-c3ccc(N(C)C)nc3)n2)cc1C [compound 24]
< 1000 nM

Param item: Cc1cc(Nc2nccc(-c3cnc4c(c3)OC3(CCC3)C(=O)N4)n2)ccc1N1C[C@@H]2C[C@H]1CN2C [compound 31]
< 1000 nM

Param item: CNC(=O)Cc1ccc(-c2ccnc(Nc3ccc(N4C[C@@H]5C[C@H]4CN5C)c(C)c3)n2)cc1 [compound 48]
1000 to 10000 nM
